test system: 186277-243-T-J2-PDC complex spheroid growth; assay: Anticancer human tumor 186277-243-T-J2-PDC patient-derived colon adenocarcinoma cell line growth inhibition [AhR]; conditions: second compound 1 µM; first compound 0.316 µM; active = viability on the fitted dose curve at most 10% of control; inactive = the rest;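 note: luminescent signal used as a stand-in for viable cell amount; spheroids exposed to compounds for seven days before the viability read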
Response enum: active, inactive

// below: answered molecules
CC1(C)CCC(CN2CCN(c3ccc(C(=O)NS(=O)(=O)c4ccc(NCC5CCOCC5)c([N+](=O)[O-])c4)c(Oc4cnc5[nH]ccc5c4)c3)CC2)=C(c2ccc(Cl)cc2)C1 + CC(CO)NC(=O)c1cc(-c2ccc(Cl)cc2)nn(-c2cnn(C)c2)c1=O :: inactive
COc1ccc([C@@H](O)c2cc(-c3ncnc4cc(N5CCOCC5)ccc34)c(F)cc2Cl)nn1 + CC(CO)NC(=O)c1cc(-c2ccc(Cl)cc2)nn(-c2cnn(C)c2)c1=O :: inactive
Nc1ccccc1NC(=O)c1ccc(CNC(=O)OCc2cccnc2)cc1 + CC(CO)NC(=O)c1cc(-c2ccc(Cl)cc2)nn(-c2cnn(C)c2)c1=O :: inactive
Nc1ccccc1NC(=O)c1ccc(CNC(=O)OCc2cccnc2)cc1 + Cc1cncc(-c2nc(NCCc3c[nH]c4ccccc34)c3ncn(C(C)C)c3n2)c1 :: inactive

Here's the next entry for you.
Input line: Dear colleague, could you share the recorded outcome for CC1COCCN1c1cc(-c2ccnn2C)c2ccnc(-c3ccn[nH]3)c2n1 (stereo not given) + CC(CO)NC(=O)c1cc(-c2ccc(Cl)cc2)nn(-c2cnn(C)c2)c1=O when you have a moment?
Output line: active
